Reported values of Time to Stabilization for individual entries
Tested on: E. coli
Test: Time to stabilization (viability and sterility after addition of stabilizer)
Type: cell-based, Escherichia coli
Number only, in h; omit the unit.

C=O [Formaldehyde] :: 24
O=C(CCCCCCC(=O)ON1C(=O)CCC1=O)ON1C(=O)CCC1=O [Disuccinimidyl Suberate] :: 120

Enter Time to Stabilization (test system E. coli) for O=CCCCC=O [Glutaraldehyde]
2
